# target_or_system: T1, recombinant hIL1RAP 21-367 (human, UniProt Q9NPH3 21-367)
# T1 construct: range 21-367; also called Rec hIL1RAP Domain123 (aa21-367); Domain123
# measurement_protocol: indirect ELISA on coated hIL1RAP 21-367, three-fold dilutions from 3.5 nM
pKd: −log10 of the molar value.
reported_metric: pKd

binder	readout_number
hCAN04 Variant 9 (antibody, human IgG1, kappa, V domains shown, Human IgG1za / kappa, expressed in CHOK1SV cells; also called Var9; humanized variant 9 of CAN04) VH: QVQLVQSGAEVKKPGSSVKVSCKASGYAFSSSWMNWVRQAPGQGLEWMGRIYPGDGNTHYAQKFQGRVTLTADKSTSTAYMELSSLRSEDTAVYYCGEGYLDPMDYWGQGTLVTVSS VL: DIQMTQSPSSLSASVGDRVTITCQASQGINNYLNWYQQKPGKAPKLLIHYTSGLHAGVPSRFSGSGSGTDFTLTISSLEPEDVATYYCQQYSILPWTFGGGTKVEIKR	9.68
hCAN04 Variant 5 (antibody, human IgG1, kappa, V domains shown, Human IgG1za / kappa, expressed in CHOK1SV cells; also called Var5; humanized variant 5 of CAN04) VH: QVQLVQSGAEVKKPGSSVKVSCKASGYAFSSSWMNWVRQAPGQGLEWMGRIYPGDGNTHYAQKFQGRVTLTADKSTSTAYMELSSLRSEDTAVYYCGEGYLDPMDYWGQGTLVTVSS VL: DIQMTQSPSSLSASVGDRVTITCQASQGINNYLNWYQQKPGKAPKLLIHYTSGLHAGVPSRFSGSGSGTDYTLTISSLEPEDVATYYCQQYSILPWTFGGGTKVEIKR	9.87
hCAN04 Variant 11 (antibody, human IgG1, kappa, V domains shown, Human IgG1za / kappa, expressed in CHOK1SV cells; also called Var11; humanized variant 11 of CAN04) VH: QVQLVQSGAEVKKPGSSVKVSCKASGYTFTSSWMNWVRQAPGKGLEWMGRIYPGDGQTHYAQKFQGRVTLTADKSTSTAYMELSSLRSEDTAVYYCGEGYLDPMDYWGQGTLVTVSS VL: DIQMTQSPSSLSASVGDRVTITCQASQGINNYLNWYQQKPGKAPKLLIHYTSGLHAGVPSRFSGSGSGTDFTLTISSLEPEDVATYYCQQYSILPWTFGGGTKVEIKR	9.30
hCAN04 Variant 2 (antibody, human IgG1, kappa, V domains shown, Human IgG1za / kappa, expressed in CHOK1SV cells; also called Var2; humanized variant 2 of CAN04) VH: QVQLVQSGAEVKKPGSSVKVSCKASGYAFTSSWMNWVRQAPGQGLEWMGRIYPGDGNTHYAQKFQGRVTLTADKSTSTAYMELSSLRSEDTAVYYCGEGYLDPMDYWGQGTLVTVSS VL: DIQMTQSPSSLSASVGDRVTITCSASQGINNYLNWYQQKPGKAPKLLIHYTSGLHAGVPSRFSGSGSGTDYTLTISSLQPEDVATYYCQQYSILPWTFGGGTKVEIKR	9.77
hCAN04 Variant 4 (antibody, human IgG1, kappa, V domains shown, Human IgG1za / kappa, expressed in CHOK1SV cells; also called Var4; humanized variant 4 of CAN04) VH: QVQLVQSGAEVKKPGSSVKVSCKASGYTFTSSWMNWVRQAPGKGLEWMGRIYPGDGQTHYAQKFQGRVTITADKSTSTAYMELSSLRSEDTAVYYCGEGYLDPMDYWGQGTLVTVSS VL: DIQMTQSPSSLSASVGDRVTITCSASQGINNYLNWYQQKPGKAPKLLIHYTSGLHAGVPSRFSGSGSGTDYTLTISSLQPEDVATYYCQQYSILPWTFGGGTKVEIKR	9.33
hCAN04 Variant 7 (antibody, human IgG1, kappa, V domains shown, Human IgG1za / kappa, expressed in CHOK1SV cells; also called Var7; humanized variant 7 of CAN04) VH: QVQLVQSGAEVKKPGSSVKVSCKASGYTFTSSWMNWVRQAPGKGLEWMGRIYPGDGQTHYAQKFQGRVTLTADKSTSTAYMELSSLRSEDTAVYYCGEGYLDPMDYWGQGTLVTVSS VL: DIQMTQSPSSLSASVGDRVTITCQASQGINNYLNWYQQKPGKAPKLLIHYTSGLHAGVPSRFSGSGSGTDYTLTISSLEPEDVATYYCQQYSILPWTFGGGTKVEIKR	9.28
